Recorded MIC by entry
Tested on: S. aureus ATCC 29213
protocol_description: MIC, broth microdilution, S. aureus ATCC 29213
Assay type: cell-based
cond: Mueller-Hinton broth, 37° C., 18 h
// units = µg/mL; emit number, no label

Please tell me: MIC of CN(C)[C@@H]1C(O)=C(C(N)=O)C(=O)[C@@]2(O)C(O)=C3C(=O)c4c(O)ccc(-n5ccc(C=O)c5)c4C[C@H]3C[C@@H]12 , system S. aureus ATCC 29213?
0.015

Please tell me: MIC of CON=Cc1ccn(-c2ccc(O)c3c2C[C@H]2C[C@H]4[C@H](N(C)C)C(O)=C(C(N)=O)C(=O)[C@@]4(O)C(O)=C2C3=O)c1 , system S. aureus ATCC 29213?
0.12

Please tell me: MIC of CN(C)[C@@H]1C(O)=C(C(N)=O)C(=O)[C@@]2(O)C(O)=C3C(=O)c4c(O)ccc(-n5ccc(C=NO)c5)c4C[C@H]3C[C@@H]12 , system S. aureus ATCC 29213?
0.12

Please tell me: MIC of CN(C)[C@@H]1C(O)=C(C(N)=O)C(=O)[C@@]2(O)C(O)=C3C(=O)c4c(O)ccc(-n5ccc(C#N)c5)c4C[C@H]3C[C@@H]12 , system S. aureus ATCC 29213?
0.015

# credit: patent US8304445B2
